Values from patent US5670546A

Each entry below carries its recorded ED50.
system: KTC-ICR mice; assay: phenyl-1,4-benzoquinone (PBQ) induced writhing test (analgesic effect); assay type: in vivo; settings: Mus musculus, ip; PBQ induced writhing; 50% reduction of writhings vs control group; mice 14 to 18 g; read-out: ED50 PBQ

Sample answers from the record:
COc1ccc2cc([C@H](C)C(=O)O)ccc2c1    17.1 mg/kg
COc1cc(CC(=O)NCCCc2ccc(C)c(C)c2)ccc1OCCNCCO    0.83 mg/kg
CNCCOc1ccc(CC(=O)NCCCc2ccc(C)c(C)c2)cc1OC    0.68 mg/kg

Given the entry CC(C)Cc1ccc(C(C)C(=O)O)cc1 (stereo not drawn) , report its measured ED50.
11 mg/kg

Given the entry CCCCC1C(=O)N(c2ccccc2)N(c2ccccc2)C1=O , report its measured ED50.
79.8 mg/kg

Given the entry CCCCCCCC/C=C\CCCCCCCC(=O)NCc1ccc(OCCN)c(OC)c1 [NE-21610, reference compound] , report its measured ED50.
38.3 mg/kg
